B1: TPR 5TU (parent)
chain: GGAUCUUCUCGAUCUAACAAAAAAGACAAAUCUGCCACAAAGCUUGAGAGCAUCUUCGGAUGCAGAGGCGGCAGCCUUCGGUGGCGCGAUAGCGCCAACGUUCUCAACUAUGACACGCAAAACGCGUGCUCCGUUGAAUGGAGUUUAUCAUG

Variants of: B1
method_description: polymerase ribozyme fitness, log enrichment relative to wild type (log ratio); higher = more active; in vitro selection for triplet polymerase activity
This sample holds only a part of the variants without activity.
quantity_kind: polymerase ribozyme fitness (log ratio)

mutation_id: A20G C57U C99A C108U
quantity_kind: polymerase ribozyme fitness (log ratio)
modifier: ≤
value_observed: -4.2
--
mutation_id: C54U U77G A121C
quantity_kind: polymerase ribozyme fitness (log ratio)
modifier: ≤
value_observed: -4.2
--
mutation_id: G67A G86A
quantity_kind: polymerase ribozyme fitness (log ratio)
modifier: =
value_observed: -3.58
--
mutation_id: U56C G94C
quantity_kind: polymerase ribozyme fitness (log ratio)
modifier: =
value_observed: 0.00198
--
mutation_id: A89C G117U
quantity_kind: polymerase ribozyme fitness (log ratio)
modifier: =
value_observed: -0.705
--
mutation_id: A49C U53G U56C A119C
quantity_kind: polymerase ribozyme fitness (log ratio)
modifier: ≤
value_observed: -4.2
--
mutation_id: A3C U4A G71U G88A
quantity_kind: polymerase ribozyme fitness (log ratio)
modifier: ≤
value_observed: -4.2
--
mutation_id: C57A A60G C75G A91U G136A A137G U144G
quantity_kind: polymerase ribozyme fitness (log ratio)
modifier: ≤
value_observed: -4.2
--
mutation_id: C10G C14U G50C C54A C76G C105G
quantity_kind: polymerase ribozyme fitness (log ratio)
modifier: ≤
value_observed: -4.2
--
mutation_id: C27A A40G U55A G83C
quantity_kind: polymerase ribozyme fitness (log ratio)
modifier: ≤
value_observed: -4.2
--
mutation_id: U6G C35U C76A C87U
quantity_kind: polymerase ribozyme fitness (log ratio)
modifier: =
value_observed: -2.63
--
mutation_id: U4A A19C
quantity_kind: polymerase ribozyme fitness (log ratio)
modifier: =
value_observed: 0.332
--
mutation_id: A12U U111C
quantity_kind: polymerase ribozyme fitness (log ratio)
modifier: =
value_observed: -4
--
mutation_id: G84C G92U A150U
quantity_kind: polymerase ribozyme fitness (log ratio)
modifier: =
value_observed: -2.39
--
mutation_id: G46A G86C C118U A122U
quantity_kind: polymerase ribozyme fitness (log ratio)
modifier: =
value_observed: -3.45
--
mutation_id: G59C C93G
quantity_kind: polymerase ribozyme fitness (log ratio)
modifier: =
value_observed: -2.98
--
mutation_id: G83C A98G
quantity_kind: polymerase ribozyme fitness (log ratio)
modifier: =
value_observed: -3.71
--
mutation_id: A39G C85U U101C
quantity_kind: polymerase ribozyme fitness (log ratio)
modifier: =
value_observed: -2.58
--
mutation_id: G68A C96U
quantity_kind: polymerase ribozyme fitness (log ratio)
modifier: =
value_observed: -3.68
--
mutation_id: C36G U56A A98G
quantity_kind: polymerase ribozyme fitness (log ratio)
modifier: =
value_observed: -3.71
--
mutation_id: G50C G68U C85U G92U A106G
quantity_kind: polymerase ribozyme fitness (log ratio)
modifier: ≤
value_observed: -4.2
--
mutation_id: A28U C79G
quantity_kind: polymerase ribozyme fitness (log ratio)
modifier: ≤
value_observed: -4.2
